System: MYB mRNA
PROTOCOL DESCRIPTION: RT-qPCR splicing assay, MYB canonical junction (CJ) and alternative junction (AJ) mRNA
Assay type: cell-based, human
SETTINGS: Homo sapiens; canonical junction qPCR panel, Table 5; read-out: MYB (decrease in CJ mRNA levels, IC50)
This section presents compounds with their documented IC50 values.

COMPOUND	IC50
Cc1cn2nc(-c3cc(C)c4c(=O)n(C5CCNC6(CC6)C5)ncc4n3)cc(C)c2n1 (stereo not drawn)	100 to 1000 nM
Cn1cc2cc(-c3ccc4c(=O)n([C@H]5CCNC5)ccc4n3)c(O)c(F)c2n1	< 100 nM
Cc1cn2cc(-c3ccc4c(=O)n([C@H]5CCN[C@@H](C)C5)ccc4n3)cc(F)c2n1	100 to 1000 nM
Cc1cn2nc(-c3ccc4c(=O)n([C@@H]5CCNC6(CC6)C5)ncc4n3)cc(C)c2n1	100 to 1000 nM
Cc1cn2nc(-c3ccc4c(=O)n(C5CCN(CCF)C6(CC6)C5)ncc4n3)cc(C)c2n1 (stereo not drawn)	1000 to 10000 nM
Cc1cc(-c2ccc3ncn(C4CCN(C)CC4)c(=O)c3c2)cc2cn(C)nc12	> 10000 nM

Query Cc1cn2nc(-c3ccc4c(=O)n(C5C[C@@H](C)N[C@H](C)C5)ncc4n3)cc(C)c2n1 (stereo in doubt) on MYB mRNA; IC50 returned: 100 to 1000 nM

Query Cc1c(O)c(-c2ccc3c(=O)n([C@H]4CC[C@@H](N(C)C)CC4)ccc3n2)cc2cn(C)nc12 on MYB mRNA; IC50 returned: 100 to 1000 nM

Query CN1CCC(Nc2ccc3ncn(-c4ccc5nn(C)cc5c4)c(=O)c3c2)CC1 on MYB mRNA; IC50 returned: > 10000 nM

---

Tested on: SMN2 mRNA
PROTOCOL DESCRIPTION: RT-qPCR splicing assay, SMN2 canonical junction (CJ) mRNA
Type: cell-based, human
SETTINGS: Homo sapiens; Table 5 panel; canonical junction qPCR; compound concentration having 50% response in CJ decrease; read-out: SMN2 IC50 (decrease in CJ mRNA levels)
This section presents compounds with their documented IC50 values.

Before answering, review these 3 worked examples.
COMPOUND	IC50
Cc1cn2nc(-c3cc4ccn([C@H]5CCNC5)c(=O)c4cc3O)cc(C)c2n1	< 100 nM
Cc1cn2cc(-c3ccc4c(=O)n(C5CCNC5)cc(C)c4c3)cc(C#N)c2n1 (stereo not shown)	1000 to 10000 nM
Cc1cn2nc(-c3cc(F)c4c(=O)n([C@H]5CCNC6(CC6)C5)cnc4c3)cc(C)c2n1 (single isomer, unassigned)	< 100 nM

IC50 recorded for this compound, Cc1cn2nc(-c3ccc4c(c3)CCN(C3CCNCC3)C4=O)nc2c(C)n1 , is 100 to 1000 nM

IC50 recorded for this compound, Cc1cn2nc(-c3cc(F)c4c(=O)n(C5CCNCC5)cnc4c3)cc2c(C)n1 , is < 100 nM

---

Tested on: Target C
PROTOCOL DESCRIPTION: RT-qPCR splicing assay panel, Target C canonical junction (CJ) mRNA
Format: cell-based, human
SETTINGS: Homo sapiens; Table 5 panel; canonical junction qPCR; compound concentration having 50% response in CJ decrease; read-out: Target C IC50 (decrease in CJ mRNA levels)
pIC50: −log10 of the molar value.
READOUT NAME: pIC50

Before answering, review these 3 worked examples.
SMILES ENTRY	ASSAYED SYSTEM	READOUT NAME	OBSERVED RESULT
Cc1cn2nc(-n3cnc4cc(N5CCNCC5)ccc4c3=O)cc(C)c2n1	Target C	pIC50	5.00 to 6.00
CCN1CCC(n2ccc3cc(-c4cc(C)c5nn(C)cc5c4)ncc3c2=O)CC1	Target C	pIC50	5.00 to 6.00
Cc1cn2cc(-c3nc4ccc(N5CCNCC5)cc4c(=O)[nH]3)cc(F)c2n1	Target C	pIC50	< 5.00

Query Cc1cn2nc(-c3cc(F)c4c(=O)n([C@@H]5CCNC6(CC6)C5)ncc4c3)cc(C)c2n1 on Target C; pIC50 returned: > 7.00

---

Tested on: MYB
PROTOCOL DESCRIPTION: HiBiT protein abundance assay, MYB HiBiT K562 cell line
Format: cell-based, human
SETTINGS: HiBiT K562 cell line, 24 hours, top dose 10 μM; read-out: Effect on protein abundance, MYB (IC50 category)
READOUT NAME: IC50

Before answering, review these 3 worked examples.
COMPOUND	IC50
Cc1cn2nc(-c3cc(F)c4c(=O)n(C5CCN(C)CC5)ccc4c3)cc(C)c2n1	< 100 nM
Cn1cc2cc(-c3ccc4c(=O)n(C5CCNCC5)ccc4n3)c(O)c(F)c2n1	< 100 nM
Cc1cn2nc(-c3ccc4c(=O)n(C5CCNCC5)cnc4c3)cc(C)c2n1	< 100 nM

We next turn to a different compound, shown below.
IC50 recorded for this compound, Cc1cn2cc(-c3cc(F)c4c(=O)n(C5CCOC5)cnc4c3)cc(C#N)c2n1 (centres unmarked) , is 1000 to 10000 nM

---

Test system: HTT mRNA
PROTOCOL DESCRIPTION: RT-qPCR splicing assay, HTT canonical junction (CJ) and alternative junction (AJ) mRNA
Format: cell-based, human
SETTINGS: Homo sapiens; canonical junction qPCR panel, Table 5; read-out: HTT (decrease in CJ mRNA levels, IC50)
READOUT NAME: IC50

Query Cc1cn2cc(-c3ccc4c(=O)n(C5CCNCC5)ccc4n3)nc(C)c2n1 [Compound 1238] on HTT mRNA; IC50 returned: > 10000 nM

Query Cc1cn2cc(-c3nc(C)c4c(=O)n(C5C[C@H](C)N[C@@H](C)C5)ccc4n3)cc(F)c2n1 (stereo partly drawn) [Compound 1523] on HTT mRNA; IC50 returned: 100 to 1000 nM

Query Cc1cn2cc(-n3cnc4ccc(N5CCNCC5)cc4c3=O)cc(F)c2n1 [Compound 2195] on HTT mRNA; IC50 returned: > 10000 nM

Query Cc1c(O)c(-c2ccc3c(=O)n([C@H]4CC[C@H](N(C)C)CC4)ccc3n2)cc2cn(C)nc12 [Compound 1484] on HTT mRNA; IC50 returned: < 100 nM

Query Cc1c(O)c(-c2ncc3c(=O)n([C@@H]4C[C@H]5C[C@@H]4CN5)ccc3n2)cc2cn(C)nc12 (stereo in doubt) [Compound 1446] on HTT mRNA; IC50 returned: > 10000 nM

Query Cc1cn2nc(-c3ccc4c(=O)n([C@H]5CCNC6(CCC6)C5)ccc4n3)cc(C)c2n1 [Compound 1518] on HTT mRNA; IC50 returned: 100 to 1000 nM

Query Cc1c(O)c(-c2ncc3c(=O)n(C4C[C@@H](C)N[C@H](C)C4)ccc3n2)cc2cn(C)nc12 (stereo partly drawn) [Compound 1454] on HTT mRNA; IC50 returned: 100 to 1000 nM

---

This section presents compounds with their documented pIC50 values.
Test system: MYB mRNA
PROTOCOL DESCRIPTION: RT-qPCR splicing assay, MYB canonical junction (CJ) and alternative junction (AJ) mRNA
Type: cell-based, human
SETTINGS: Homo sapiens; canonical junction qPCR panel, Table 5; read-out: MYB (decrease in CJ mRNA levels, IC50)
pIC50: −log10 of the molar value.

Before answering, review these 3 worked examples.
SMILES ENTRY	pIC50
Cc1cn2cc(-c3ncc4c(=O)n(C56CCC(N)(CC5)C6)ccc4n3)cc(F)c2n1	6.00 to 7.00
Cn1cc2cc(-c3ncc4c(=O)n(C56CCC(N)(CC5)C6)ccc4n3)cc(F)c2n1	6.00 to 7.00
CCN1CC[C@H](n2ncc3nc(-c4cc(C)c5nc(C)cn5n4)ccc3c2=O)CC12CC2	6.00 to 7.00

pIC50 recorded for this compound, Cc1cn2nc(-n3cnc4ccc(N5CCN(C)CC5)cc4c3=O)cc(C)c2n1 , is 5.00 to 6.00

pIC50 recorded for this compound, Cn1cc2cc(-c3ccc4c(=O)n(C5CCNCC5)ccc4n3)c(O)c(C#N)c2n1 , is 6.00 to 7.00

---

Tested on: HTT
PROTOCOL DESCRIPTION: HiBiT protein abundance assay, HTT HiBiT K562 cell line
Format: cell-based, human
SETTINGS: HiBiT K562 cell line, 24 hours, top dose 10 μM; read-out: Effect on protein abundance, HTT (IC50 category)
pIC50: −log10 of the molar value.
READOUT NAME: pIC50

Before answering, review these 5 worked examples.
COMPOUND	pIC50
Cc1cn2cc(-c3cc(F)c4c(=O)n(C5CCNCC5)cc(C)c4c3)cc(F)c2n1	> 7.00
Cc1cc(-c2cc(F)c3c(=O)n(C4CCNC5(CC5)C4)ncc3c2)cc2cn(C)nc12 (stereo not shown)	> 7.00
Cc1c(O)c(-c2ncc3c(=O)n([C@H]4CC[C@H](N(C)C)CC4)ccc3n2)cc2cn(C)nc12	6.00 to 7.00
COC(=O)c1cc(-c2ccc3c(=O)n(C4CCNCC4)ccc3c2)nn2cc(C)nc12	5.00 to 6.00
Cc1cn2nc(-c3cc(F)c4c(=O)n(C5CCNC5)ccc4c3)cc(C)c2n1 (stereo in doubt)	5.00 to 6.00

pIC50 recorded for this compound, Cc1cn2cc(-c3cc(F)c4c(=O)n(C5CCOC5)cnc4c3)cc(C#N)c2n1 (stereo in doubt) [Compound 500] , is 6.00 to 7.00

pIC50 recorded for this compound, Cc1cn2nc(-c3cc(F)c4c(=O)n(C5CCN(C)C6(CC6)C5)ncc4c3)cc(C)c2n1 (stereo not shown) , is > 7.00
